test system: 786-0 renal; assay: NCI-60 one-dose screen, 48 h (100 = growth as untreated, 0 = no growth, -100 = all killed); conditions: 10 µM
This is part of a sample that, as a whole, favours compounds with a hit. Of some 83,000 tested, about 20% had one in any assay.
# key: entry, value: growth
Measured attribute: growth (%)

                                   compound  measured_attribute  assay_result
0  COc1cc(CCN=Cc2ccccc2O)c([N+](=O)[O-])cc1OC              growth          92.6
1                     COc1ccc(NC(=O)CCl)cc1              growth          80.7
2                          NC(=S)NN=C1CCCC1              growth           106
3  OC1OC(COC(c2ccccc2)(c2ccccc2)c2ccccc2)C(O)C(O)C1O (configuration not stated)              growth           102
4                CC(=O)Cc1ccc(-c2ccccc2)cc1              growth           105
5    COC(=O)Nc1nc2ccc(C(=O)c3cccs3)cc2[nH]1              growth            19
6                        O/N=C/c1ccc(O)cc1O              growth           108

----------
system: SW-620 colon; assay: NCI-60 one-dose screen, 48 h (100 = growth as untreated, 0 = no growth, -100 = all killed); settings: 10 µM
This is part of a sample that, as a whole, favours compounds with a hit. Of some 83,000 tested, about 20% had one in any assay.
# key: entry, value: growth
Measured attribute: growth (%)

>>> print(df.to_string())
                                    compound  measured_attribute  unit_info  assay_result
 0       O=[N+]([O-])c1ccccc1N=Nc1ccc(O)cc1O              growth          %           116
 1  CC(=O)OCC1=CC2OC(=O)C3=COC(OC4OC(CO)C(O)C(O)C4O)C1C32 (stereo not drawn)              growth          %           111
 2  CC(C)NC(=O)OCc1c(COC(=O)NC(C)C)c(-c2ccc(Cl)c(Cl)c2)n2c1SCC2              growth          %          44.8
 3             CCCCC/C=N/Nc1nc(C)cc(=O)[nH]1              growth          %           104
 4                           NCC(=O)CCC(=O)O              growth          %           108
 5                    CC1=CC(=O)c2ccccc2C1=O              growth          %           106
 6                           C=CCNc1nnc(C)s1              growth          %           107
 7                    c1ccc2c(c1)Sc1ccccc1S2              growth          %           104
 8     CC1CC(O)CC(C)(C)C1 (stereo not drawn)              growth          %           110
 9                       c1ccc(Sc2ccccc2)cc1              growth          %           107
10                      CCCCNC(=O)C(=O)NCCCC              growth          %           104
11                           CCCCN(CCCC)CCCO              growth          %           120
12             CCCCNC1(C#N)CCN(Cc2ccccc2)CC1              growth          %           102
13             O=C(/C(=N/O)c1ccccc1)c1ccccc1              growth          %           107
14  COC(=O)Nc1nc2ccc(C(=O)c3ccc(F)cc3)cc2[nH]1              growth          %          24.8
15                  NC(=O)NC(=O)c1ccc(Cl)cc1              growth          %           102
16     Cc1ccc(C(=O)N/N=C/c2ccc3c(c2)OCO3)cc1              growth          %           106
17                               S=C1CCCCCN1              growth          %           107
18             NC(=O)c1ccc(N=C(N)N=C(N)N)cc1              growth          %           104
19  C=C1CC/C=C(\C)C(=O)C[C@@H]2[C@@H]1CC2(C)C              growth          %           119
20   CC(=O)Cc1cc(-c2cc(CC(C)=O)[nH]n2)n[nH]1              growth          %          98.5
21              O=C(CC(=O)c1ccccc1O)c1ccccc1              growth          %          86.4
22  NC(C(=O)O)c1ccc([N+](=O)[O-])cc1 (stereo not drawn)              growth          %           109
23          O=C(CCNNC(=O)c1ccncc1)NCc1ccccc1              growth          %            96
24  O=c1[nH][nH]c(=O)c2cc([N+](=O)[O-])ccc12              growth          %           101
25       CN(C)c1nc2c([nH]1)c(=O)n(C)c(=O)n2C              growth          %           102
26  CC(=O)c1sc2c(c1OC(=O)c1ccc(Cl)cc1Cl)c(=O)n(-c1ccccc1)c(=S)n2-c1ccccc1              growth          %            14
27                  CC(=O)Nc1cccc(NC(C)=O)n1              growth          %          99.1

----------
tested on: SK-OV-3 ovarian; experiment: NCI-60 one-dose screen, 48 h; conditions: 10 µM
Compounds without any hit were thinned out: in the full panel of roughly 83,000, 20% have a hit. Activity calls are given as the source filed them. How the source made its calls: active means growth percent below 10; inactive means the rest. Where a SMILES comes first, the peptide text is derived from it. Bridges are numbered along the chain shown (N, C = ends). [ ]: non-standard residue; d: D form. The star is where a group is joined. ξ: configuration not given here. ξNMePhe(4-NMe2) = CNC(Cc1ccc(N(C)C)cc1)C(=O)O; Picolinoyl(3-OH) = O=C(c1ncccc1O)*; ξPip(4-oxo) = O=C1CCNC(C(=O)O)C1; Phg = N[CH](C(=O)O)c1ccccc1; Abu = CC[CH](N)C(=O)O
Possible outcomes: active, inactive

Compound	Cat
NC(=O)NC(=O)c1ccc(Cl)cc1	inactive
Cc1ccccc1C1N=C2Oc3ccccc3C=C2C(=O)N1 (centres undefined)	active
CCCCCCCCCCC1CO1 (centres undefined)	inactive
O=C(Cc1nc2ccc([N+](=O)[O-])cc2nc1CC(=O)c1ccccc1)c1ccccc1	inactive
O=C(O)CSCSCC(=O)O	inactive
CC(=O)Cc1ccc(-c2ccccc2)cc1	inactive
CCCCCCCCOC(=O)c1ccccn1	inactive
O=[N+]([O-])c1ccc(N=Nc2ccc(O)c3ccccc23)cc1	inactive
COc1cc(C(=O)N/N=C/c2cccc([N+](=O)[O-])c2)cc(OC)c1OC	inactive
Cc1cccc([N+](=O)[O-])c1Cl	inactive
CCOC(=O)c1cc(/C=C/c2cccc(Cl)c2)on1	inactive
O=[N+]([O-])c1ccc(Cl)c(S(=O)(=O)O)c1	inactive
COC(=O)c1ccccc1N(C)C	inactive
Cc1cc2nc(CC(=O)c3cccc([N+](=O)[O-])c3)c(=O)[nH]c2cc1C	inactive
C=CCCCCCCCCCOC(C)=O	inactive
NC(C(=O)O)c1ccc([N+](=O)[O-])cc1 (centres undefined)	inactive
COc1cc2c3cc1Oc1c(OC)c(OC)cc4c1C(Cc1ccc(O)c(c1)Oc1ccc(cc1)CC3N(C)CC2)N(C)CC4 (centres undefined)	inactive
CC1Cc2ccccc2O1 (centres undefined)	inactive
O=S(=O)(O)CC(O)CN1CCN(CCO)CC1 (centres undefined)	inactive
COC(=O)C(O)c1ccccc1 (centres undefined)	inactive
O=C(O)CCCC(=O)O	inactive
COC(=O)c1[nH]c(=O)c(C#N)c(C(=O)OC)c1C(=O)c1ccccc1	inactive
COc1ccc(NC(=O)CCl)cc1	inactive
O=C1C=CC2=C3c4cc(O)c(O)cc4CC3(O)COC2=C1O (centres undefined)	inactive
COC(=O)Nc1nc2ccc(C(=O)c3cccs3)cc2[nH]1	inactive
O=C(Cc1nc2ccc([N+](=O)[O-])cc2nc1CC(=O)c1cccnc1)c1cccnc1	inactive
c1ccc(CN2COc3c(ccc4c3OCN(Cc3ccccc3)C4)C2)cc1	inactive
COc1cccc(COC(=O)Nc2ccccc2)c1OC	inactive
CC1SC(N)=NC1=O (centres undefined)	inactive
CC(C)=NNC(N)=S	inactive
COc1ccc(C(C)C=O)cc1 (centres undefined)	inactive
NCCC(=O)c1ccc(Cl)cc1	inactive
C=CCNC(=O)c1ccc(OC)cc1	inactive
O=c1[nH]cc(Cl)cc1O	inactive
O=[N+]([O-])c1cccc2nsnc12	inactive
CCC1NC(=O)C(NC(=O)c2ncccc2O)C(C)OC(=O)C(c2ccccc2)NC(=O)C2CC(=O)CCN2C(=O)C(Cc2ccc(N(C)C)cc2)N(C)C(=O)C2CCCN2C1=O (centres undefined) (tested in a mixture with another compound) ({Picolinoyl(3-OH)}-T[Abu]P[ξNMePhe(4-NMe2)][ξPip(4-oxo)][Phg]; ester 1-C; configuration not given here)	inactive
O=C(NCCNC(=O)c1ccc(Cl)cc1Cl)c1ccc(Cl)cc1Cl	inactive
O=[N+]([O-])c1ccc(/C=C/C=C/c2ccccc2)c(Cl)c1	inactive
c1cc[n+](C2c3ccccc3C([n+]3ccccc3)c3ccccc32)cc1 (centres undefined)	inactive
CC(C)CCCC(=O)O	inactive
COC(=O)/C=C\C(=O)OC	inactive
CC(=O)OCC1=CC2OC(=O)C3=COC(OC4OC(CO)C(O)C(O)C4O)C1C32 (centres undefined)	inactive
CC(C)OC(C(=O)O)c1ccccc1 (centres undefined)	inactive
O=C(OCC(O)C1OC(c2ccccc2)OC(COC(=O)c2ccccc2)C1O)c1ccccc1 (centres undefined)	inactive
CCCC[P+](c1ccccc1)(c1ccccc1)c1ccccc1	inactive
CC(C)=C(NC(=O)c1ccccc1)C(=O)O	inactive
COc1cc2c(cc1O)CC[C@@H]1C2CC[C@@]2(C)C1CC[C@@H]2O (some centres undefined)	inactive
CC(=O)CC(=O)N(C)C	inactive
Oc1ccc(Cc2ccccc2)c2cccnc12	inactive
